B1: CPEB3 Ribozyme (parent)
chain: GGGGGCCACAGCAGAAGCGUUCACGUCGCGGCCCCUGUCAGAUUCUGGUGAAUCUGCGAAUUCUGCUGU

Variants of: B1
Assay: self-cleavage, relative activity (ratio to wild type); higher = more cleavage; co-transcriptional
Answer each item with its documented self-cleavage.
Numbers only.

| Mutation Id | self-cleavage |
| --- | --- |
| G14A G17A | 0.134 |
| G11U G30U | 0.263 |
| A23C U69G | 1.02 |
| C18U U36G | 0.19 |
| U36A G56A | 0.231 |

Please report self-cleavage for every entry that follows.
1. C32A A59U
2. A42C U46C
3. A15C A23U
4. U20C G65C
5. C9A C32G
6. C32G G47U
7. C33G G41A

Found:
0.445
0.895
0.917
0.126
0.843
0.514
0.323
